Test system: U2OS
Assay: Incucyte cell viability with U2OS; also: unitless GR value; below 1 slowed growth and below 0 cell loss
Assay type: toxicity, cell-based
Conditions: human, 24 h, 10 µM, compound concentration 10 uM, replicate number 2, timepoint 24 hours
measuredAttribute: Growth Rate
# respond with the number and nothing more

Examples with their reported Growth Rate follow.
1. O=C(c1cc(C2CC2)on1)N(C1CCCCC1)C1CCCCC1 :: 1
2. Cc1cc(C)cc(C(=O)NOCCCCCC(=O)NO)c1 :: 0.36
3. O=C1COc2nccc(-c3ccccc3F)c2CN1Cc1cc(C(F)(F)F)cc(C(F)(F)F)c1 :: 0.93
4. CC(=O)Nc1cccc2c1c(Sc1ccc(Cl)cc1)c(C)n2CC(=O)O :: 0.95

Retrieve Growth Rate on U2OS; query CC1(C)SSC(C)(C)[C@@H](NC(=O)[C@@H](N)Cc2ccc(O)cc2)C(=O)NCC(=O)N[C@@H](Cc2ccccc2)C(=O)N[C@H]1C(=O)O.O=C(O)C(F)(F)F
0.94

Retrieve Growth Rate on U2OS; query COc1cc(N2CCN(C)CC2)ccc1Nc1nccc(-c2cn(C)c3cnccc23)n1
0.96

Retrieve Growth Rate on U2OS; query CCCOc1ccc2[nH]cc(C3=CCNCC3)c2n1.Cl
0.93

* * *

Test system: Fibroblast
Assay: Incucyte cell viability with human fibroblast; also: unitless GR value; below 1 slowed growth and below 0 cell loss
Assay type: toxicity, cell-based
Conditions: 6 h, 10 µM, compound concentration 10 uM, replicate number 2, timepoint 6 hours
One threshold, 0.4, splits the recorded Growth Rate values: lower ones are 1, equal or higher ones are 0.

Bench note: check whether CN(C)CCCc1cc(C(=O)Nc2ccc(-c3ccncc3)cc2)ccc1O.Cl.Cl shows Growth Rate below 0.4
1

Bench note: check whether C[C@@H](O[C@H]1OCCN(Cc2n[nH]c(=O)[nH]2)[C@H]1c1ccc(F)cc1)c1cc(C(F)(F)F)cc(C(F)(F)F)c1 [APREPITANT] shows Growth Rate below 0.4
1

Bench note: check whether O=C(NCc1ccc(F)cc1)N1CCN2C(=O)OC(c3ccccc3)(c3ccccc3)C2C1 (stereo unspecified) shows Growth Rate below 0.4
0

Bench note: check whether Cc1noc(C)c1-c1cnc2c(-c3ccc(C(=O)O)cc3)cn([C@@H](C)c3ccccn3)c2c1 [PLX-51107] shows Growth Rate below 0.4
0

Bench note: check whether Br.Br.c1ncc(CC2CCNCC2)[nH]1 shows Growth Rate below 0.4
0

Bench note: check whether Cl.Clc1cccc(Cl)c1NC1=NCCN1 [CLONIDINE HYDROCHLORIDE] shows Growth Rate below 0.4
0

Bench note: check whether COCCCN1CCC(NC(=O)c2cc(Cl)c(N)c3c2OCC3)CC1 [PRUCALOPRIDE] shows Growth Rate below 0.4
0

Bench note: check whether CNC(=O)[C@H]1O[C@@H](n2cnc3c(NCc4cccc(I)c4)ncnc32)[C@H](O)[C@@H]1O [IB-MECA] shows Growth Rate below 0.4
1

Bench note: check whether Br.Br.N=C(N)NCCSC(=N)N shows Growth Rate below 0.4
0

Bench note: check whether Cc1ccccc1C#Cc1ccc(CCC(=O)O)cc1 shows Growth Rate below 0.4
1

Bench note: check whether Cc1cc(OCCCS(C)(=O)=O)cc(C)c1-c1cccc(COc2ccc3c(c2)OC[C@H]3CC(=O)O)c1 shows Growth Rate below 0.4
1

Bench note: check whether O=C(NC[C@@H]1[C@H]2CN(C(=O)OCc3cc(C(F)(F)F)cc(C(F)(F)F)c3)C[C@@H]12)c1ccc2[nH]nnc2c1 [BI 2545] shows Growth Rate below 0.4
1

Bench note: check whether CC(C)(C)c1ccc(-c2coc3ccc(-c4cn[nH]c4)nc23)cc1 shows Growth Rate below 0.4
1

Bench note: check whether Cc1nc[nH]c1CCN.Cl shows Growth Rate below 0.4
1

Bench note: check whether CCc1nn2c(C)cc(C)nc2c1Cc1ccc(-c2nnc(C3CCNCC3)o2)cc1 shows Growth Rate below 0.4
1

* * *

Tested on: U2OS
Assay: Incucyte cell viability with U2OS; also: unitless GR value; below 1 slowed growth and below 0 cell loss
Format: toxicity, cell-based
Conditions: human, 24 h, 10 µM, compound concentration 10 uM, replicate number 2, timepoint 24 hours
Measured Growth Rate, listed per entry for reference.
# respond with the number and nothing more

Retrieve Growth Rate on U2OS; query CN(C)[C@H]1CN(C2CCc3cccc(F)c32)C[C@@H]1c1ccc(N2CCN(S(C)(=O)=O)CC2)cc1 (some centres undefined)
0.98

Retrieve Growth Rate on U2OS; query CC1(C)[C@H]2C[C@H](C/C=C\CCCC(=O)O)[C@@H](NC(=O)c3csc4ccc(O)cc34)[C@@H]1C2
0.86

Retrieve Growth Rate on U2OS; query CCCN1CCC[C@@H]2Cc3n[nH]cc3C[C@H]21.Cl [QUINPIROLE HYDROCHLORIDE]
0.96

Retrieve Growth Rate on U2OS; query NCCc1cn(S(=O)(=O)c2c(Cl)nc3sccn23)c2ccccc12.O=C(O)C(=O)O
0.57

Retrieve Growth Rate on U2OS; query CC(C)COc1ccc(CNC(=O)N(Cc2ccc(F)cc2)C2CCN(C)CC2)cc1
0.24

* * *

Test system: U2OS
Test: Incucyte cell viability with U2OS; also: unitless GR value; below 1 slowed growth and below 0 cell loss
Format: toxicity, cell-based
Conditions: human, 24 h, 10 µM, compound concentration 10 uM, replicate number 1, timepoint 24 hours
measuredAttribute: Growth Rate
# respond with the number and nothing more

// Input: CNCCN1CCC(c2cc(CN(C)C(=O)c3cccc(Oc4ccccc4)c3)ccn2)CC1 . Output its Growth Rate only.
0.37

// Input: C[C@@H]1CC(=O)Nc2cccc(-c3ccc4c(c3)c(-c3cnn(C)c3)nn4C)c2N1 . Output its Growth Rate only.
0.85

// Input: CCOC(=O)c1c(/C(C#N)=C\N)c2ccc(Cl)c(Cl)c2n1C . Output its Growth Rate only.
0.73

// Input: C[C@H]1[C@H](OC(=O)CCC(=O)O)O[C@@H]2O[C@@]3(C)CC[C@H]4[C@H](C)CC[C@@H]1[C@@]24OO3 [ARTESUNATE] . Output its Growth Rate only.
0.98

* * *

System: HEK-293T
Test: Incucyte cell viability with HEK293T; also: unitless GR value; below 1 slowed growth and below 0 cell loss
Format: toxicity, cell-based
Settings: human, 6 h, 10 µM, compound concentration 10 uM, replicate number 2, timepoint 6 hours
measuredAttribute: Growth Rate

Retrieve Growth Rate on HEK-293T; query C[C@@H]1CN(Cc2ccc(F)cc2)CCN1C(=O)COc1ccc(Cl)cc1NC(N)=O [BX 471 FREE BASE]
0.4

Retrieve Growth Rate on HEK-293T; query Cc1cccc(S(=O)(=O)N(C)[C@H](C)CCN2CCC(C)CC2)c1.Cl
0.92

Retrieve Growth Rate on HEK-293T; query Cc1c(C(=O)Nc2ccc(N3C[C@@H](C)O[C@@H](C)C3)nc2)cccc1-c1ccc(OC(F)(F)F)cc1
-0.63

Retrieve Growth Rate on HEK-293T; query Br.CS(=O)(=O)Nc1c(O)ccc2c1CCCC2C1=NCCN1 (configuration not stated)
0.33

Retrieve Growth Rate on HEK-293T; query Br.Oc1cc2c(cc1O)C(c1ccccc1)CNCC2 (configuration not stated)
-0.1

Retrieve Growth Rate on HEK-293T; query COc1ccc2c(c1OCc1ccccc1)C[C@@H](C(=O)O)N(C(=O)C(c1ccccc1)c1ccccc1)C2
0.64

Retrieve Growth Rate on HEK-293T; query C[C@H]1CN(C[C@H](Cc2ccccc2)C(=O)NCC(=O)O)CC[C@@]1(C)c1cccc(O)c1
0.52

* * *

System: U2OS
Experiment: Incucyte cell viability with U2OS; also: unitless GR value; below 1 slowed growth and below 0 cell loss
Type: toxicity, cell-based
Conditions: human, 18 h, 10 µM, compound concentration 10 uM, replicate number 2, timepoint 18 hours
Measured Growth Rate, listed per entry for reference.
# respond with the number and nothing more

Examples with their reported Growth Rate follow.
1. CC1(C)[C@H]2C[C@H](C/C=C\CCCC(=O)O)[C@@H](NC(=O)c3csc4ccc(O)cc34)[C@@H]1C2 :: 0.81
2. COc1cc(OC2CCN(C(C)=O)CC2)ccc1C(=O)N1CCC(N2C(=O)OCc3ccccc32)CC1 :: 0.78
3. O=C1c2c(Br)c(Br)c(Br)c(Br)c2C(=O)N1c1ncc[nH]1 :: 1
4. CC(C)(O)C(=O)N1CCN(c2ccc(C(F)(F)F)c(C3=C(c4c[nH]c5ccccc45)C(=O)NC3=O)c2)CC1 :: 0.68
5. O=C1NC(=Nc2c(Cl)cccc2Cl)S/C1=C\c1ccc2nccnc2c1 :: 0.57
6. COc1ccc(-n2c(C)c([N+](=O)[O-])c3ccc(O)cc32)cc1 :: 0.71
7. C[C@@H]1C[C@H]2[C@@H]3CCC4=CC(=O)C=C[C@]4(C)[C@@]3(F)[C@@H](O)C[C@]2(C)[C@@]1(O)C(=O)CO [DEXAMETHASONE] :: 0.95
8. CO[C@H]1CNC[C@@H](OCC2CCC(F)(F)CC2)[C@@H]1Nc1ncc(-c2cncc(C)c2)c2cc(C)c(=O)[nH]c12 :: 0.97

// Input: CCCN1CCC[C@@H]2Cc3n[nH]cc3C[C@H]21.Cl [QUINPIROLE HYDROCHLORIDE] . Output its Growth Rate only.
0.96

// Input: CCCCCCCCCCCCC/C=C/[C@@H](O)[C@@H](N)COP(=O)([O-])OCC[N+](C)(C)C [SPHINGOSYLPHOSPHORYLCHLOLINE] . Output its Growth Rate only.
0.8
